Test: yeast display, Sf9 membrane polyspecificity reagent, FACS + sequencing; frameworks hold sequencing errors
property_measured: polyreactivity (PSR sort gate)

1) QVQLVESGVGLVQAGGSLRLSCAASGRIFTLNAMGWYRQAPGKERELFAGISRTGGSTYYADSVKVRFPISRDNAKNTVYLQMNSLKPEDTAVYYCAAAGFRRQPGAGAYYYWGQGTQVTVSS = high polyreactivity
2) QVQLVESGGGLVQAGGSLRLSCAACGFTFQYYAMGWYRQAPGKVRELVATITTSGGNTYYADSVKGRFTISRDNAKNTVYLQMNSLKPEDTAVYYCAARSYRASSRGYVYWGQGTQVTVSS = high polyreactivity
3) QVHLVESGGGLVQAGGSLRLSCAASGRIFARNAKGWYRQAPGKERELVATIRVGGGSTYYADSVKGRYTISRDNAKNTVYLQMNSLKPEDTAVYYCAVRQLYSYPGDRRGYYWGQGTQVTVSS = low polyreactivity
4) QVQLVESGGGLVQAGGSLRLSCAASGRIFIRNTMVWYRQAPGKERELVADISWRGGSTYYADSVKGRFTISRDNAKNTVYLEMNSLKPEDTAVYYSAAVVRSPAYDYWGQGTQVTVSS = high polyreactivity
5) QVQLQESGGGLVQAGGSLRLSCAASGYISYFVGMGWYRQAPGKEREFVASIADGSNTYYADSVKGRFTISRDNAKNTVYLQRNSLKQEDTAVYYCAVEDSWTYRFDYWGQGTQVTVSS = high polyreactivity
6) QVQLQESGGGLVQAGGTLRLSCAASGSFSADEDMGWYRQAQGKEREFVAGISVGGNTNYADSVKGRFTISRENAKNTVYLELNSLKPEDTAVYYCAVLQDVYDALDYWAQGTQVTVSS = high polyreactivity
7) QVQLVESGGGLVQAGGSLRLSCAASGRIFFLYAMGWYRQAPGKERELVAAITWSADGTYYADSVKGRFTISRDNAKNTVYLQMNSLKPEDTAVYYCNADAYTTASSYNWWYYYWGQGTQVTVSS = low polyreactivity
8) QVQLVESGGGLVQAGGSLRLSCAASGRIFKIYAMGWYRQAPGKERELVASISWSGGRTYYADSVKGRFTISRDNAKNTVYLQMNSLKPEDTAVYYCAATFSYSSYIYDYWGQGTQVTVSS = high polyreactivity
9) QVQLVESVGGLVQAGGSLRLSCAASGSIFRRYAMGWYRQAPGKERELVAGISSGGYTNYADSVKGRFTISRDNAKNTVYLQMNSLKPEDTAVYYCAAKQYRYVRYRPVDYWGQGTQVTVSS = high polyreactivity
10) HVQLVESGAGLVQAGGSLRLSCAASGSIFGFYAMGWYRQAPGKERELVAAISSSGDSTYADSVKGRFTISRDNAKNTVYLQMNSLKPEDTAVYYCAADEDSRNWGQGTQVTVSS = high polyreactivity
11) QVQLVESGGGLVQAGGSLRLSCAASGTIFYIYAMGWYRQAPGKERELVAAITWRGGRTYYADSVKGRFTISRDNAKNTVYLQMNSLKPEDTAVYYCAALYANYYYRYEYWGQGTQVTVSS = high polyreactivity

====

Assay: yeast display, Sf9 membrane polyspecificity reagent, FACS + sequencing; frameworks hold sequencing errors
property_measured: polyreactivity (PSR sort gate)

1. QVHLVESGGGLVQAGGTLRLRCAASGSTFVYNDMGWYRQAPGKERELVAAISTSGGSTYYADSVKGRFTISRDNAKNTVYLQMNSLKPEDTAVYFCAVDSYYFGYWAIQWEGDYWGQGTQVTVSS = low polyreactivity
2. QVQLVESGGCLVQAGGSHRLSCAASGFIFYRYAMGWYRQAPGKERELVAAISGSGGRTYYADSVKGRFTISRDNAKNTVYLQMNSLKPEDTAVYYCAADKQAYVTDDYWGQGTQVTVSS = high polyreactivity
3. QVQLLESGGGLVQAGGSLRLSCAASGRTCRWYAMGWYTQAPWKERELVAAISSSTASTYYADSVKGRFTISRDYAKITVYLQMNSLKPEDSAVYYCAKYYYRFPVCYDYWGLGTQVTVSS = high polyreactivity
4. QVQLVESGGGLVQAGGSLRLSCAASGFTFSYYDMGWYRQAPGKERELVAAITQSGGSTYYADSVKGRFTISRDNAKNTVYLQMNSLKPEDTEVFYCAALTYRWSARDYWGQGTQVTVSS = high polyreactivity
5. QVQLVESGGGLVQAGGSLRLSCAASGIIFYPYAMGWYRQAPGKERELVADITSGGGTNYADSVKGRFTISRDNAKNTVYLHMNSLKREDTAVYYWAAEVRGYHWGTYYEFYYWGQGTQVTVSS = low polyreactivity
6. QDQLVESGGGLVQAGGSLRLSCAASGSTFETNAMGWYRQAPGKERELVAAISGRGGSTYYADSVKGRFTFSRDNAKNTVYLQMNSLKPEDTAVFYCDATYGTGRRSKYGYCGQGTQVTVSS = high polyreactivity
7. QVQLVESGGGLVQAGGSLRLSCAASGITFGPNAMGWYRQAPGKERELVAAISWRGGSTYYADSVKGRFTISRDNAKNTVYLQMNSLKPEDTAVYYCAKVQIPASYIRYDYWGQGTQVTVSS = low polyreactivity
8. QVELVESGGGLVQAGGSLRLSCAASGITFYVYTMGWYRQAPGKERELVAAINGSGGSTNYADSVKGRFTISRDIAKNTVFLQMNSLKPEDSAVYYCAADWSLRLYDYWGQGTQVTVSS = low polyreactivity
9. QVQLVESGGGLVQEGGSLRLSCAASGRIFENNAMGWYRQAPGKERELVAAITSGGSTYYADSVKGRFTISRDNAKNTVYLQMNSLKPEDTAVYYCNVTFRVDPWTRTGYDYWGQGTQVTVST = high polyreactivity
10. QVQLVESGGGLVQAGGSLRLSCAASGRTFPYNAMGWYRQAPGKERELVAAITWRGGRTYYADSVKGRFTISRDYAKNTVYLQMNSLKPEDSAVYYCATVRVSRVRPFWNVWRSNYWGQGTQVTVSS = high polyreactivity
11. QVQLVESGGGLVQAGGSLRLSCAASGSIFRVNAMGWYRQAPGKERELVAAISCRGASTYYADSVKGRFTISRDNAKNTVYLQMNSLKPVDTAVYYCAAYGYSIGPYYYWGQGTQVTGSS = high polyreactivity
